Data origin: patent US20240075139A1

TESTED_ON: EBOV Mayinga (GenBank: NC_002549) (Zaire Ebolavirus (EBOV Mayinga)) (UniProt Q05320)
EXPERIMENT_NOTES: cell-based or functional assay
Readings of neutralization concentration (GMC, CPE reduction on Vero C1008 cells) for the listed binders
Answer format: number, then unit.

Examples with their reported neutralization concentration (GMC, CPE reduction on Vero C1008 cells) follow.
- BINDER: "5T0337 (antibody, V domains shown) VH: EVQLVESGGGLVKPGGSLRISCAASGFTFNNAWMNWVRQSPGKGLEWVGRIKSKSDAGTTDYAAPVKGRFIISRDDSKKTLFLQMNSLKIEDTAIYFCMTGFEHTYSYFDLWGRGTQVTVSS VL: QSVLTQPPSVSGAPGQRVIISCIGGSSNIGAGYDVKWYQQLLPGTAPRLLIYGNTNRPSGVPDRFSGSKSGTSASLAITGLQAEDEADYYCQSYDSRLRDAWVFGGGTKLTVL"
  ENDPOINT_RESULT: "2.21 µg/mL"
- BINDER: "1T0655 (antibody, V domains shown) VH: QVQLVQSGAEVKKPGASVKVSCKASGYTFTSYYMHWVRQVPGQGLEWMGIIKAGNGGTNYAQNFQGRITVTRDTSTSTVYMELSSLRSEDTAVYYCARDRQWLPLNGYSYFNYGMDVWGQGTTVTVSS VL: DIQMTQSPSSLSASVGDKITITCRASQSISTYLNWYQQRPGRAPKLLIFGASSLQSGVPSRFSGSGSGTVFTLSISSLQPDDFGSFYCQQSFSSPRTFGQGTKVEIK"
  ENDPOINT_RESULT: "0.08 µg/mL"
- BINDER: "3T0611 (antibody, V domains shown) VH: EVQLVESGGNLVQPGGSLRLSCAASGFTFRSYSMNWVRQAPGKGLEWVSYISSSASIIHYAESVQGRFTISRDNAKNSLFLQMNSLRAEDTAVYYCAGILDDYRDYGYDYWGQGTLVTVSS VL: SYELTQPPSVSVSPGQTARITCSGDALPKQYAYWYQQRPGQAPVLVIYKDIERPSGIPERYSGSSSGAIVTLTISGAQAEDEADYYCQSSDNNGSYRVMFGGGTKLTVL"
  ENDPOINT_RESULT: "0.78 µg/mL"

Record 1T0455 (antibody, V domains shown) VH: EVQLVESGGGLVKPGESLRLSCAVSGLTFSNAWMNWVRQAPGKGLEWVGRIKSKSDGGAADYAAPVNARFTISRDDSKKTLYLQMNSLKTEDTGFYYCTTLYHSGQGTLVTVSS VL: QSVLTQPPSVSGAPGQRVTISCTGSSSNIGAGYDVHWYQQLPGTAPKFVIYGNNNRPSGVPDRFSGSKSGTSASLAITGLQVEDEGDYYCQSYDSRLSDHVVFGGGTKLTVL , field neutralization concentration (GMC, CPE reduction on Vero C1008 cells): 1.77 µg/mL

Record 1T0451 (antibody, V domains shown) VH: QVQLVQSGAEVKKPGASVKISCEASGYNFNGYVIDWVRQAPGQRLEWMGWINPGNGNTKFSPKFQGRVTFTRAASASTAYMELSSLTSEDTALYFCARGRGTSYYYAFDVWGQGTTVTVSS VL: DIQMTQFPSSLSASVGDRVTISCRASQNISNYLNWYQQKPGKAPKFLIYAASNLQSGVPSRFSGSGSGTGFTLTISNLQPEDFAIYYCQQTYRSPLYTFGQGTKLEIK , field neutralization concentration (GMC, CPE reduction on Vero C1008 cells): 2.5 µg/mL
